- System: OVCAR-4 ovarian
- PROCEDURE_TEXT: NCI-60 one-dose screen, 48 h (100 = growth as untreated, 0 = no growth, -100 = all killed)
- CONDITIONS: 10 µM
The panel holds about 83,000 compounds, 20% with a hit somewhere; the sample as a whole holds those more often.
Record TRUE whenever growth is at 40% or higher; record FALSE when lower.

Ask | Form field: growth at least 40%? Entry: C#CCNC(=O)[C@]12CCC(C)(C)C[C@H]1C1=CC[C@@H]3[C@@](C)(CCC#N)[C@H](C(=C)C)CC[C@@]3(C)[C@]1(C)CC2
Reply | TRUE

Ask | Form field: growth at least 40%? Entry: N#Cc1ccc(-c2nn(-c3ccc(C(=O)O)cc3)cc2CNc2cc(Cl)cc(C(F)(F)F)c2)cc1
Reply | FALSE

Ask | Form field: growth at least 40%? Entry: C/C(=N\N=C\c1ccc(Cl)c([N+](=O)[O-])c1)c1ccc2c(c1)Nc1ccccc1S2
Reply | FALSE

Ask | Form field: growth at least 40%? Entry: CN1C(=O)N(C)C2SC(N/N=C/C=C/c3ccccc3)=NC21 (centres undefined)
Reply | TRUE

Ask | Form field: growth at least 40%? Entry: CC(=O)Nc1nc(-c2ccc(N3CCN(C)CC3)c(NS(=O)(=O)c3ccc(C(F)(F)F)cc3)c2)cs1
Reply | TRUE

Ask | Form field: growth at least 40%? Entry: COc1ccc([C@H]2C(C(=O)c3ccc(Cl)cc3)C3(N[C@@H]2c2ccccc2)C(=O)Nc2ccc(Br)cc23)cc1 (some centres undefined)
Reply | FALSE

Ask | Form field: growth at least 40%? Entry: O=C(O)CCCCCCCCCCN1C(=O)/C(=C/c2cnc(-c3ccc(Cl)cc3)s2)SC1=S
Reply | TRUE

Ask | Form field: growth at least 40%? Entry: C[C@H]1[C@H](C)CC[C@]2(COC(=O)CCC(=O)NCC#CCN3CCNCC3)CC[C@]3(C)C(=CC[C@@H]4[C@@]5(C)CCCNC(C)(C)[C@@H]5CC[C@]43C)[C@H]12
Reply | TRUE

Ask | Form field: growth at least 40%? Entry: CNCc1cccc2c1OCCCCCC[C@@](C)(O)CC1(CC1)S(=O)(=O)c1ccc(cc1)-c1cnc(N)c(n1)C(=O)N2
Reply | FALSE

Ask | Form field: growth at least 40%? Entry: [2H]C([2H])([2H])Oc1ccc2ncc(C#Cc3cncc(C(=O)Nc4ccc(CN5CCN(C)CC5)c(C(F)(F)F)c4)c3)n2n1
Reply | FALSE

Ask | Form field: growth at least 40%? Entry: Cc1ccc(CSc2nc(-c3ccc(F)cc3)c(C#N)c(=O)[nH]2)cc1
Reply | TRUE

Ask | Form field: growth at least 40%? Entry: CC[C@]12C=CCN3CC[C@@]4(c5cc(C#CCNc6ccc(C)c(Nc7nccc(-c8cccnc8)n7)c6)c(OC)cc5N(C)[C@H]4[C@@](O)(C(=O)OC)[C@@H]1OC(C)=O)C32 (some centres undefined)
Reply | TRUE

Ask | Form field: growth at least 40%? Entry: COc1ccc2c3nc4cc(C)c(C)cc4nc3n(CCN(C)C)c2c1
Reply | FALSE

Ask | Form field: growth at least 40%? Entry: C=C1CCC2C3(C)COC(c4c(F)cccc4F)OC3CCC2(C)C1C/C=C1/C(=O)OCC1O (centres undefined)
Reply | FALSE

Ask | Form field: growth at least 40%? Entry: C/C(=N\N=C\c1ccc(N(C)C)cc1)c1ccc2c(c1)Nc1ccccc1S2
Reply | FALSE

Ask | Form field: growth at least 40%? Entry: O=C(CSc1nnc(-c2c[nH]c3ccccc23)n1-c1ccccc1)Nc1ccc(C(=O)/C=C/c2ccc(Cl)cc2)cc1
Reply | TRUE

Ask | Form field: growth at least 40%? Entry: O=C(Nc1cccc(-c2cn(-c3ccc4oc(=O)ccc4c3)nn2)c1)Nc1cc(C(F)(F)F)cc(C(F)(F)F)c1
Reply | FALSE

Ask | Form field: growth at least 40%? Entry: O=C(Cn1cc(CSc2nnc3oc4ccccc4n23)nn1)Nc1ccc(Br)cc1
Reply | TRUE

Ask | Form field: growth at least 40%? Entry: COc1csc(/C=N/NC(=O)c2[nH]c3ccc(Br)cc3c2-c2ccccc2)c1
Reply | FALSE

Ask | Form field: growth at least 40%? Entry: COc1ccc(-c2cc(C(=O)N=Nc3c(O)[nH]c4ccc(Br)cc34)c3ccccc3n2)cc1
Reply | TRUE

Ask | Form field: growth at least 40%? Entry: Cc1noc2c(Cc3ccccc3)nn(CC(=O)N/N=C/c3ccc(Br)cc3)c(=O)c12
Reply | FALSE

Ask | Form field: growth at least 40%? Entry: CC(=O)OC[C@@]1(C)C2CC[C@]3(C)C(CC=C4C5CC(C)(C)CC[C@]5(C(=O)Nc5ccccc5)CC[C@]43C)[C@@]2(C)C[C@@H](OC(C)=O)[C@@H]1OC(C)=O (some centres undefined)
Reply | FALSE

Ask | Form field: growth at least 40%? Entry: COc1ccc(-c2nc(S(=O)(=O)c3ccc(C)cc3)c(S(=O)(=O)CC(=O)N(C)Cc3ccccc3)o2)cc1
Reply | TRUE

Ask | Form field: growth at least 40%? Entry: CN1CCc2c(sc3ncnc(N/N=C/c4cn(-c5ccccc5)nc4-c4ccc(Cl)cc4)c23)C1
Reply | FALSE

Ask | Form field: growth at least 40%? Entry: N#Cc1c(-c2ccc(F)cc2)nc(SCc2ccc([N+](=O)[O-])cc2)nc1N1CCOCC1
Reply | TRUE

Ask | Form field: growth at least 40%? Entry: CC(C)CCSc1nc(NC2CC2)c(C#N)c(-c2ccc(C(C)C)cc2)n1
Reply | TRUE

Ask | Form field: growth at least 40%? Entry: O=c1[nH]c2ccc(Cl)cc2cc1CSc1ccc(Nc2nccc(-c3ccc(Cl)cc3)n2)cc1
Reply | FALSE

Ask | Form field: growth at least 40%? Entry: CCOC(=O)C1=C(N)N(c2ccccc2)C2=C(C(=O)CC(C)(C)C2)C1c1ccccc1OC (centres undefined)
Reply | TRUE
